Molecular target: human orexin-2 receptor (Homo sapiens (Human), UniProt O43614)
Sequence (O43614 whole entry): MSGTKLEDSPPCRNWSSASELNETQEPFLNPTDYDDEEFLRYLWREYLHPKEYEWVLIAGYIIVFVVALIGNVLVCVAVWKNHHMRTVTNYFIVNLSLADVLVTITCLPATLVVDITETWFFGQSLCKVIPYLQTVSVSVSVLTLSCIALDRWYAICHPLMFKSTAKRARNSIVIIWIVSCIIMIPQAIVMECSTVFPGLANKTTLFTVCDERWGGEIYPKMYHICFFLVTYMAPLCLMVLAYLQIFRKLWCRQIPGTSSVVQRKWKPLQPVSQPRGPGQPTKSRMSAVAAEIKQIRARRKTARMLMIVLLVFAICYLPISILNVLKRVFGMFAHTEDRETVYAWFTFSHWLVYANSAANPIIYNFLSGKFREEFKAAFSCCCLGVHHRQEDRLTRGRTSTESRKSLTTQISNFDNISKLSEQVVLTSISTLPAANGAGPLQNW
Experiment: In vitro assay: intracellular calcium measurements (FLIPR), antagonistic activity
Format: cell-based
Conditions: CHO cells, 3 nM orexin-A, compound incubation 120 min; marked values are geometric means of n = 2-6; read-out: IC50 OX2
Listed below: IC50 values for each entry.

[
  {
    "Compound": "CCOc1cccc(OC)c1C1CC(F)(F)C(=O)N1Cc1cccc(-c2ccccc2)c1 (stereo not shown)",
    "IC50 [nM]": 63
  },
  {
    "Compound": "COc1cccc(OC)c1C1CCCC(=O)N1Cc1cccc(N2CCCC2)c1 (stereo not shown)",
    "IC50 [nM]": 31
  },
  {
    "Compound": "COc1ccnc(OC)c1C1CC(C)C(=O)N1Cc1ccc2oc3ccccc3c2c1 (stereo not shown)",
    "IC50 [nM]": 13
  },
  {
    "Compound": "CCOc1cc(F)cc(F)c1[C@@H]1C[C@@H](O)C(=O)N1Cc1ccc(OC(F)(F)F)cc1 (racemic)",
    "IC50 [nM]": 255
  },
  {
    "Compound": "COc1ccccc1[C@@H]1C[C@H](Cl)C(=O)N1Cc1ccc(OC(F)(F)F)cc1 (racemic)",
    "IC50 [nM]": 901
  },
  {
    "Compound": "COc1cccc(OC)c1C1CCCC(=O)N1Cc1cccc(-c2cscn2)c1 (stereo not shown)",
    "IC50 [nM]": 17
  },
  {
    "Compound": "COc1c(F)ccc(F)c1[C@@H]1C[C@@H](O)C(=O)N1Cc1ccc(OC(F)(F)F)cc1 (racemic)",
    "IC50 [nM]": 1030
  },
  {
    "Compound": "CCOc1cc(F)ccc1[C@@H]1C[C@@H](Cl)C(=O)N1Cc1ccc(OC(F)(F)F)cc1 (racemic)",
    "IC50 [nM]": 1630
  },
  {
    "Compound": "COc1cncc(OC)c1C1CCCCC(=O)N1Cc1cccc(-c2ccccc2)c1 (stereo not shown)",
    "IC50 [nM]": 80
  },
  {
    "Compound": "COc1cccc(OC)c1C1CC(C)C(=O)N1Cc1cc2cc(F)ccc2n1C (stereo not shown)",
    "IC50 [nM]": 142
  },
  {
    "Compound": "COc1ccccc1[C@@H]1C[C@H](F)C(=O)N1Cc1ccc(OC(F)(F)F)cc1 (racemic)",
    "IC50 [nM]": 568
  },
  {
    "Compound": "COc1cccc(OC)c1C1CCCCC(=O)N1Cc1cccc(-c2cscn2)c1 (stereo not shown)",
    "IC50 [nM]": 19
  },
  {
    "Compound": "COc1cccc(OC)c1C1CCCC(=O)N1Cc1cccc(N2CCCCC2)n1 (stereo not shown)",
    "IC50 [nM]": 11
  },
  {
    "Compound": "COc1cccc(OC)c1C1CCCC(=O)N1Cc1ccc2sc(C)nc2c1 (stereo not shown)",
    "IC50 [nM]": 13
  },
  {
    "Compound": "COc1cccc(OC)c1C1CC(C)C(=O)N1Cc1cc(Cl)cc(-c2ccccn2)c1 (stereo not shown)",
    "IC50 [nM]": 270
  },
  {
    "Compound": "COc1cccc(OC)c1C1CCC(=O)N1Cc1cccc(-c2ccccc2)n1 (stereo not shown)",
    "IC50 [nM]": 105
  },
  {
    "Compound": "COc1ccc(OC(F)(F)F)cc1CN1C(=O)C(C)CC1c1c(OC)cccc1OC (stereo not shown)",
    "IC50 [nM]": 449
  },
  {
    "Compound": "COc1cccc(OC)c1C1CCCCC(=O)N1Cc1cncc(-c2ccccc2)c1 (stereo not shown)",
    "IC50 [nM]": 455
  },
  {
    "Compound": "CCOc1ccc(F)c(F)c1[C@@H]1C[C@@H](O)C(=O)N1Cc1ccc(OC(F)(F)F)cc1 (racemic)",
    "IC50 [nM]": 58
  },
  {
    "Compound": "COc1cccc(OC)c1C1CCC(=O)N1Cc1cccc(-c2csc(C)n2)c1 (stereo not shown)",
    "IC50 [nM]": 82
  },
  {
    "Compound": "CCOc1cccc(F)c1[C@@H]1C[C@@H](O)C(=O)N1Cc1ccccc1OC(F)(F)F (racemic)",
    "IC50 [nM]": 3920
  },
  {
    "Compound": "COc1cccc(OC)c1C1CC(C)C(=O)N1Cc1cccc(-c2ccccc2)c1 (stereo not shown)",
    "IC50 [nM]": 70
  }
]

The measured values listed here are drawn from patent US9242970B2.
